- System: SARS-CoV-2 pseudovirus
List of SI (ratio of TC50 to IC50) values.

Take a look at these entries with their results.
O=c1cc(-c2ccccc2)oc2cc(O[C@@H]3O[C@H](CO)[C@@H](O)[C@H](O)[C@H]3O)c(O)c(O)c12
>3.55
O=c1cc(-c2ccccc2)oc2cc(O)c(O)c(O)c12
>9.80
C[C@@H]1O[C@@H](OC[C@H]2O[C@@H](Oc3c(-c4ccc(O)c(O)c4)oc4cc(O)cc(O)c4c3=O)[C@H](O)[C@@H](O)[C@@H]2O)[C@H](O)[C@H](O)[C@H]1O
>3.40

Quick one: give measured SI (ratio of TC50 to IC50) for COc1c(O[C@@H]2O[C@H](C(=O)O)[C@@H](O)[C@H](O)[C@H]2O)cc(O)c2c(=O)cc(-c3ccccc3)oc12 [compound 13, Wogonoside] >4.20

Consider the compound O=c1c(O[C@@H]2O[C@H](CO)[C@@H](O)[C@H](O)[C@H]2O)c(-c2ccc(O)c(O)c2)oc2cc(O)cc(O)c12 and give its recorded SI (ratio of TC50 to IC50). >5.30

Look up SI (ratio of TC50 to IC50) of O=c1cc(-c2ccc(O)cc2)oc2cc(O)c(O)c(O)c12 and report it. >10.25

Identify measured SI (ratio of TC50 to IC50) associated with O=c1cc(-c2ccc(O)cc2)oc2cc(O)cc(O)c12 <1.82

Quick one: give measured SI (ratio of TC50 to IC50) for O=c1cc(-c2ccccc2)oc2cc(O)cc(O)c12 <1.69

Hello, please tell me recorded SI (ratio of TC50 to IC50) for this one: Oc1cc(O)c2c(c1)O[C@H](c1cc(O)c(O)c(O)c1)[C@H](O)C2 [compound 23, (-)-Epigallocatechin] 6.11

====

- System: HEK-293T-ACE2^h cells
- TEST METHOD NOTES: MTT cytotoxicity assay on host cells (4 h)
- Type: cell-based, human
- EXPERIMENTAL PARAMETERS: MTT, 4 h
Documented CC0 (maximum nontoxic concentration) across a set of compounds
Note: unit µM is implicit; provide only the numeric part.

# assay system HEK-293T-ACE2^h cells: give CC0 (maximum nontoxic concentration) of O=c1cc(-c2ccc(O)cc2)oc2cc(O)cc(O)c12 50

// fetch CC0 (maximum nontoxic concentration); item: O=c1c(O)c(-c2ccc(O)cc2)oc2cc(O)cc(O)c12 ; system: HEK-293T-ACE2^h cells 200

====

- System: HEK-293T-ACE2^h cells
- TEST METHOD NOTES: MTT cytotoxicity assay on host cells (4 h)
- Format: cell-based, human
- EXPERIMENTAL PARAMETERS: MTT, 4 h
ASSAY METRIC: CC0 (maximum nontoxic concentration) (µM)
Give just the numeric value; µM need not be written.

Below, each entry is followed by its recorded CC0 (maximum nontoxic concentration) result.
O=c1c(O)c(-c2ccc(O)c(O)c2)oc2cc(O)cc(O)c12
300
O=c1c(O[C@@H]2O[C@H](CO)[C@@H](O)[C@H](O)[C@H]2O)c(-c2ccc(O)cc2)oc2cc(O)cc(O)c12
300
Oc1cc(O)c2c(c1)O[C@H](c1ccc(O)c(O)c1)[C@H](O)C2 [compound 22, (-)-Epicatechin]
300
O=c1c(O[C@@H]2O[C@H](CO)[C@@H](O)[C@H](O)[C@H]2O)c(-c2ccc(O)c(O)c2)oc2cc(O)cc(O)c12
300
O=c1cc(-c2ccccc2)oc2cc(O[C@@H]3O[C@H](CO)[C@@H](O)[C@H](O)[C@H]3O)c(O)c(O)c12
300

Return CC0 (maximum nontoxic concentration) (reported value) for this compound: O=c1cc(-c2ccc(O)cc2)oc2cc(O)c(O)c(O)c12 200

Tell me its CC0 (maximum nontoxic concentration) given Oc1cc(O)c2c(c1)OC(c1ccc(O)c(O)c1)C(O)C2 (racemic) [compound 21, (±)-Catechin] as the entry. 300

====

Record set of SI (ratio of TC50 to IC50) for target or system SARS-CoV-2 pseudovirus.

// solved cases for SI (ratio of TC50 to IC50) follow
Oc1cc(O)c2c(c1)O[C@H](c1ccc(O)c(O)c1)[C@@H](O)[C@@H]2c1c(O)cc(O)c2c1O[C@H](c1ccc(O)c(O)c1)[C@H](O)C2
>3.30
O=c1c(O[C@@H]2O[C@H](CO)[C@@H](O)[C@H](O)[C@H]2O)c(-c2ccc(O)cc2)oc2cc(O)cc(O)c12
>3.76
O=c1c(O[C@@H]2O[C@H](CO)[C@H](O)[C@H](O)[C@H]2O)c(-c2ccc(O)c(O)c2)oc2cc(O)cc(O)c12 [compound 19, Hyperoside]
>6.02
Oc1cc(O)c2c(c1)OC(c1ccc(O)c(O)c1)C(O)C2 (racemic) [compound 21, (±)-Catechin]
>3.19
Oc1cc(O)c2c(c1)O[C@H](c1ccc(O)c(O)c1)[C@H](O)C2 [compound 22, (-)-Epicatechin]
>3.43

Report value: SI (ratio of TC50 to IC50), system: SARS-CoV-2 pseudovirus, compound: O=c1cc(-c2ccc(O)c(O)c2)oc2c([C@@H]3O[C@H](CO)[C@@H](O)[C@H](O)[C@H]3O)c(O)cc(O)c12 >7.85

====

- Tested on: HEK-293T-ACE2^h cells
- TEST METHOD NOTES: MTT cytotoxicity assay on host cells (4 h)
- Type: cell-based, human
- EXPERIMENTAL PARAMETERS: MTT, 4 h
Below is a list of entries, each paired with its recorded CC0 (maximum nontoxic concentration) value.
Write the answer as a number in µM, unit excluded.

Sample answers from the record:
O=C(O[C@@H]1Cc2c(O)cc(O)cc2O[C@@H]1c1ccc(O)c(O)c1)c1cc(O)c(O)c(O)c1 [compound 24, (-)-Epicatechin gallate]
300
Oc1cc(O)c2c(c1)O[C@H](c1ccc(O)c(O)c1)[C@@H](O)[C@@H]2c1c(O)cc(O)c2c1O[C@H](c1ccc(O)c(O)c1)[C@H](O)C2
300

Here's the next entry for you.
Return CC0 (maximum nontoxic concentration) (reported value) for this molecule: O=c1cc(-c2ccccc2)oc2cc(O[C@@H]3O[C@H](CO[C@@H]4O[C@H](CO)[C@@H](O)[C@H](O)[C@H]4O)[C@@H](O)[C@H](O)[C@H]3O)c(O)c(O)c12 300

====

SARS-CoV-2 pseudovirus: recorded SI (ratio of TC50 to IC50) for assorted compounds

Please review the entries below; each comes with its answer.
O=c1cc(-c2ccccc2)oc2cc(O[C@@H]3O[C@H](CO[C@@H]4O[C@H](CO)[C@@H](O)[C@H](O)[C@H]4O)[C@@H](O)[C@H](O)[C@H]3O)c(O)c(O)c12
>2.33
O=C(O[C@@H]1Cc2c(O)cc(O)cc2O[C@H]1c1cc(O)c(O)c(O)c1)c1cc(O)c(O)c(O)c1 [compound 26, (-)-Gallocatechin gallate]
>11.52
Oc1cc(O)c2c(c1)O[C@H](c1ccc(O)c(O)c1)[C@H](O)[C@H]2c1c(O)cc(O)c2c1O[C@H](c1ccc(O)c(O)c1)[C@H](O)[C@H]2c1c(O)cc(O)c2c1O[C@H](c1ccc(O)c(O)c1)[C@H](O)C2
>2.90
COc1c(O)cc2oc(-c3ccccc3)cc(=O)c2c1O
>8.08

Lab note: next compound to report on.
Recall the reported SI (ratio of TC50 to IC50) of COc1ccc2cc1Oc1ccc(cc1)C[C@H]1c3c(cc4c(c3Oc3cc5c(cc3OC)CCN(C)[C@@H]5C2)OCO4)CCN1C [Cepharanthine, reference compound] when tested on SARS-CoV-2 pseudovirus. 8.88

====

- Test system: HEK-293T-ACE2^h cells
- TEST METHOD NOTES: MTT cytotoxicity assay on host cells (4 h)
- Assay type: cell-based, human
- EXPERIMENTAL PARAMETERS: MTT, 4 h
CC0 (maximum nontoxic concentration) listing for selected compounds.
Write it as a number; the unit µM goes unstated.

Here's what some known entries look like.
O=c1cc(-c2ccc(O)cc2)oc2c([C@@H]3O[C@H](CO)[C@@H](O)[C@H](O)[C@H]3O)c(O)cc(O)c12 [compound 4, Vitexin]
300
O=c1cc(-c2ccc(O)c(O)c2)oc2cc(O)cc(O)c12 [compound 3, Luteolin]
200
COc1ccc2cc1Oc1ccc(cc1)C[C@H]1c3c(cc4c(c3Oc3cc5c(cc3OC)CCN(C)[C@@H]5C2)OCO4)CCN1C [Cepharanthine, reference compound]
6.25
Oc1cc(O)c2c(c1)O[C@H](c1ccc(O)c(O)c1)[C@H](O)[C@H]2c1c(O)cc(O)c2c1O[C@H](c1ccc(O)c(O)c1)[C@H](O)C2 [compound 28, Procyanidin B-2]
300
Oc1cc(O)c2c(c1)O[C@H](c1ccc(O)c(O)c1)[C@H](O)[C@H]2c1c(O)cc(O)c2c1O[C@H](c1ccc(O)c(O)c1)[C@@H](O)C2 [compound 27, Procyanidin B-1]
300
O=c1cc(-c2ccccc2)oc2cc(O)c(O)c(O)c12 [compound 7, Baicalein]
200

Okay, now this compound:
Give the reported value of CC0 (maximum nontoxic concentration) for this record: O=c1c(O)c(-c2cc(O)c(O)c(O)c2)oc2cc(O)cc(O)c12 [compound 16, Myricetin] 300
